Assay system: UniProtKB Q9NYK1
Sequence (Q9NYK1 27-1049): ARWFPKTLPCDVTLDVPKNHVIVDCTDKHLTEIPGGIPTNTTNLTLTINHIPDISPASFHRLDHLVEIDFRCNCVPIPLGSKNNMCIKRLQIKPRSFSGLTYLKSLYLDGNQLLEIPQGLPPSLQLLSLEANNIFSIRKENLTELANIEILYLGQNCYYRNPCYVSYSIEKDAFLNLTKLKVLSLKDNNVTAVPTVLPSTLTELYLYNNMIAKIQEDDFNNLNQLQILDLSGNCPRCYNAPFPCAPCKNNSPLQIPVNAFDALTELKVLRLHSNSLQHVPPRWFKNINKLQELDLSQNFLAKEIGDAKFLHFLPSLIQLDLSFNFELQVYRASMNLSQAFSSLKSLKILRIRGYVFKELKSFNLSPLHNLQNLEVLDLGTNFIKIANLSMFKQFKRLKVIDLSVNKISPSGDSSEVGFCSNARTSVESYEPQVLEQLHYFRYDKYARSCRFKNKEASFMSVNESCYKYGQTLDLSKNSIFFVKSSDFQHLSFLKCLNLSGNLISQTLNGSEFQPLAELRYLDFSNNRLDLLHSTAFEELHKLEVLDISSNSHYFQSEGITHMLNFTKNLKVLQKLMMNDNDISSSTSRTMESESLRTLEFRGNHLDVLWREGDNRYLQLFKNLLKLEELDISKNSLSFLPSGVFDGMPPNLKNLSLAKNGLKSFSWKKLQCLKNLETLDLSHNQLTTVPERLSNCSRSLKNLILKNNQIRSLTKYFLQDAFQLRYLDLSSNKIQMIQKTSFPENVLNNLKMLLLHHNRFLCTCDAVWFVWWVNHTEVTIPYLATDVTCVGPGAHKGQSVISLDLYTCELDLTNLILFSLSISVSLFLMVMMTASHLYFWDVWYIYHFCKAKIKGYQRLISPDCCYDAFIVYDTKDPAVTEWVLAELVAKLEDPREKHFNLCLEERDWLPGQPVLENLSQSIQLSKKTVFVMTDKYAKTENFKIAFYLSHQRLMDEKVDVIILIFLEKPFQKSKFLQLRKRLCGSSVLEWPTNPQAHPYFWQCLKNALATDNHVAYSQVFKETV
Assay comment: TLR7 inhibition reporter assay (HEK-Blue SEAP reporter, gardiquimod stimulation)
Measurement context: HEK-Blue cells overexpressing human TLR7, SEAP reporter, gardiquimod 7.5 μM, 22 hour incubation
Property: IC50 (nM)

[[record]]
compound = "CC(=O)N1CCC(c2ccc3[nH]c(-c4cn(C)c(=O)c(Cl)c4C)c(C(C)C)c3c2)CC1"
unit_annotation = "nM"
observed_result = 8.3

[[record]]
compound = "Cc1cc(-c2[nH]c3ccc(C4CCN(CC(=O)N(C)C)CC4)cc3c2C(C)C)cn(CC(C)C)c1=O"
unit_annotation = "nM"
observed_result = 12.3

[[record]]
compound = "Cc1c(-c2[nH]c3ccc(C4CCNCC4)cc3c2C(C)C)cn(C)c(=O)c1-c1cccnc1"
unit_annotation = "nM"
observed_result = 976


(1) CCCN1CCC(c2ccc3[nH]c(-c4cc(-c5ccc(F)nc5)c(=O)n(C)c4)c(C(C)C)c3c2)CC1
(2) Cc1cc(-c2[nH]c3ccc(C4CCN(C(=O)CN(C)C)CC4)cc3c2C(C)C)cn(Cc2ccccc2)c1=O
IN: Lab note: check whether 1 or 2 has the lower measured IC50. Which one? Tell me its label.
OUT: 2

(P) Cc1c(-c2[nH]c3ccc(C4CCNCC4)cc3c2C(C)C)cn(C)c(=O)c1N
(Q) CC(C)c1c(-c2cn(C)c(=O)cn2)[nH]c2ccc(C3CCNCC3)cc12
IN: Hi team, can someone confirm which has the larger IC50: P or Q ? Thanks. Which one? Tell me its label.
OUT: Q
(Q: 82.8 nM, P: 25.7 nM)

(A) C=Cc1cc(-c2[nH]c3ccc(C4CCN(CC(=O)N(C)C)CC4)cc3c2C(C)C)cn(C)c1=O
(B) Cc1cc(-c2[nH]c3ccc(C4CCN(C5CCC(C(C)C)CC5)CC4)cc3c2C(C)C)cn(C)c1=O (stereo not drawn) [Example 233]
(C) CNC(=O)CN1CCC(c2ccc3[nH]c(-c4cn(C)c(=O)c(Cl)c4C)c(C(C)C)c3c2)CC1
(D) CCn1cc(-c2[nH]c3ccc(C4CCN(C(=O)CN(C)C)CC4)cc3c2C(C)C)cc(C)c1=O
IN: Task for the reader: rank each entry by its IC50, from the minimum upward. Quick reminder: the answer is the labels in the order asked.
OUT: C, D, A, B
